All values here come from patent US20240309087A1.

system: T1, hCD112R mFC recombinant protein (human; murine, UniProt Q6DKI7 41-160)
T1 construct: range 41-160; expressed in 293E cells; also called hCD112R ECD mFC; hCD112R-ECD-mFC; not shown: murine IgG2a Fc domain (MX2-mFc vector)
T1 sequence (looked up): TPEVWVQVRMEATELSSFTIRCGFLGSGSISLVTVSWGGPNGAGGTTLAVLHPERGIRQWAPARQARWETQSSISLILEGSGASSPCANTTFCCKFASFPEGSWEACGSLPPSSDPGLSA
assay-protocol: ELISA, coated hCD112R-ECD-mFC
Recorded measurements of EC50, one per entry
measured-parameter: EC50 (ng/mL)

# binder, measured-parameter, quantitative-readout
records = [
    ("Hu33 (antibody, IgG4, V domains shown, humanized IgG4) VH: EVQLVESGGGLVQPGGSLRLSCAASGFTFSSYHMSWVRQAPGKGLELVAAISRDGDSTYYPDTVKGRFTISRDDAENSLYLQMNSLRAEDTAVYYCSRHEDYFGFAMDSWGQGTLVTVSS VL: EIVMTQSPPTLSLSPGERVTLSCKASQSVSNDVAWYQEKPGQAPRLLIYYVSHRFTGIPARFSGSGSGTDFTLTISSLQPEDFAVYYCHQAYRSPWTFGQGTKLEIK", "EC50", 3.48),
    ("Hu55 (antibody, IgG4, V domains shown, humanized IgG4) VH: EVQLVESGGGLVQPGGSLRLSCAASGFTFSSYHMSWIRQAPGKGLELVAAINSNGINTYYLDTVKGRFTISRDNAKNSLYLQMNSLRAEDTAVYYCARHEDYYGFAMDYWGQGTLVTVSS VL: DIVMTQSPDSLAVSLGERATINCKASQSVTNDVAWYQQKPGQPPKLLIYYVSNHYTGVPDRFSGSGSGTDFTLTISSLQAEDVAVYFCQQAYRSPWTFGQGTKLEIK", "EC50", 5.53),
    ("Hu35 (antibody, IgG4, V domains shown, humanized IgG4) VH: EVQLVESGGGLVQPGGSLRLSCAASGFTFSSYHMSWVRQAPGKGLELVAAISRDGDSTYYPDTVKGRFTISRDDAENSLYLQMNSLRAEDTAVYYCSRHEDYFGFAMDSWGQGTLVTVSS VL: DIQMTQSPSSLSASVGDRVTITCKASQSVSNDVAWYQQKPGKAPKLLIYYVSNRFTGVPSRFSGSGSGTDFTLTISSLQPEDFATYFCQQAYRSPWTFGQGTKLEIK", "EC50", 4.39),
]
